- System: NCI-H322M lung
- Test details: NCI-60 one-dose screen, 48 h (100 = growth as untreated, 0 = no growth, -100 = all killed)
- Applied conditions: 10 µM unless noted
Compounds without any hit were thinned out: in the full panel of roughly 83,000, 20% have a hit. Activity calls are given as the source filed them. The calls were made as follows: active = growth percent below 10; inactive = the rest.
Property label: growth

CCOC(=O)c1cc(/C(=N\O)c2cc(OC)c(OC)c(OC)c2)n2c(C)cccc12 | 59.2% (inactive)
CCCCCCCC/C=C\CCCCCCCCOc1ccccc1CCOP(=O)(O)OCC[N+](C)(C)C | 106% (inactive)
CC(=O)Nc1ccc(S(=O)(=O)NC(CCC(=O)Nc2ccc(Cl)cc2)C(=O)O)cc1 (configuration not stated) | 96.9% (inactive)
O=C(CSc1nc(-c2ccc(Cl)cc2)cn1-c1ccc(Cl)cc1)c1ccc(Br)cc1 | 94.2% (inactive)
CC(C)C[C@H](NC(=O)[C@@H](Cc1ccccc1)n1ccc(Nc2ccccc2)cc1=O)B(O)O | 43.5% (inactive)
COc1cc(CCn2nnc3c(Nc4ccc(N5CCOCC5)cc4)ncnc32)cc(OC)c1 | 111% (inactive)

We next turn to a different compound, shown below.
Requested read-out: growth. Entry: COc1cc(C2CC(c3c(C)[n+]([O-])c4ccccc4[n+]3[O-])=NN2)cc(OC)c1OC (configuration not stated) 119% (inactive)
